- Test system: Botrytis cinerea
- experiment.summary: Test A: tomato seedlings sprayed with test suspension, inoculated with Botrytis cinerea (gray mold), visual disease rating
- Type: in vivo
- condition.info: Cmpd. No. unmarked; 100 = 100% disease control, 0 = no control relative to controls
- Source text: General protocol for preparing test suspensions for Tests A-E: the test compounds were first dissolved in acetone in an amount equal to 3% of the final volume and then suspended at the desired concentration (in ppm) in acetone and purified water (50/50 mix by volume) containing 250 ppm of the surfactant Trem® 014 (polyhydric alcohol esters). […]
Collected Test A rating (% disease control) values appear next to each entry.

| compound | result.units | Test A rating (% disease control) |
| --- | --- | --- |
| Cn1nc(C(F)F)c(C(=O)N(Cc2ccc(-n3ccc(C(F)(F)F)n3)cc2Cl)C2CC2)c1F | % | 0 |
| CC(c1cc(Cl)cc(-n2ccc(C(F)(F)F)n2)c1)N(C(=O)c1cn(C)nc1C(F)F)C1CC1 (stereo not shown) | % | 0 |
| Cn1cc(C(=O)N(Cc2ccc(-n3cc(Cl)cn3)cc2Cl)C2CC2)c(C(F)F)n1 | % | 32 |
| Cn1nc(C(F)F)c(C(=O)N(Cc2cccc(-n3ccc(C(F)(F)F)n3)c2)C2CC2)c1F | % | 0 |
